Sourced from the kinase profiling compilation of Christmann-Franck et al. (2016)

# residual activity listing for each entry below
target_or_system: EGFR (human) (UniProt P00533)
Sequence (P00533 whole entry, looked up): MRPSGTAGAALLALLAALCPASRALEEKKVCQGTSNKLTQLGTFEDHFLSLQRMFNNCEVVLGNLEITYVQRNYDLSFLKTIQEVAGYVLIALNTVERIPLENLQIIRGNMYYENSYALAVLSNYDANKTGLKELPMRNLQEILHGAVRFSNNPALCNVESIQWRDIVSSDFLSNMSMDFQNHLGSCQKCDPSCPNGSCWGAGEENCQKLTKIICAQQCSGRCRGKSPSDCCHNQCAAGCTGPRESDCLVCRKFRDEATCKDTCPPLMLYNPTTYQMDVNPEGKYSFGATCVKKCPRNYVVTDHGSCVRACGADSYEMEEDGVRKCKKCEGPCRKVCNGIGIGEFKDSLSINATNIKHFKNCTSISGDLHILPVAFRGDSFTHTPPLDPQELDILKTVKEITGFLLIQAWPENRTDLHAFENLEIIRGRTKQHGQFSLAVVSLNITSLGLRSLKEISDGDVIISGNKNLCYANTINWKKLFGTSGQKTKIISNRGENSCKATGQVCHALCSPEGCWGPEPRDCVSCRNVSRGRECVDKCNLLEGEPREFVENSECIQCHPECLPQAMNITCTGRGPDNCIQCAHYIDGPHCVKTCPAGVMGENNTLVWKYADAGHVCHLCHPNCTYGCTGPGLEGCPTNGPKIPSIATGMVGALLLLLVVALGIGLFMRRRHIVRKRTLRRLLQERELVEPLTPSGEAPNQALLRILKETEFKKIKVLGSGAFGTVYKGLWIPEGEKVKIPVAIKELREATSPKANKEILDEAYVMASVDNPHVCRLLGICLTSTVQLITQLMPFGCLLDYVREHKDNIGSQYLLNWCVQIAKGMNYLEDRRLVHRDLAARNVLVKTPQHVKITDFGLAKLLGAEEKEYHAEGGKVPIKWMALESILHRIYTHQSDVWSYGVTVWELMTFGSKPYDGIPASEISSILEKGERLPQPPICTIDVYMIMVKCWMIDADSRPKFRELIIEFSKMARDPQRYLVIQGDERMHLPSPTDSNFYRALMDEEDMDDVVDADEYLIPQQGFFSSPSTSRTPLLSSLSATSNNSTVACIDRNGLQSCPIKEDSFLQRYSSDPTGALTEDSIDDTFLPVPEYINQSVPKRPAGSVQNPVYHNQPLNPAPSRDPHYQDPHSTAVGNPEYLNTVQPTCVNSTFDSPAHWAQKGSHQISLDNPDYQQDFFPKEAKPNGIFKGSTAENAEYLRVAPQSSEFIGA
assay_method_text: radiometric filter-binding kinase assay, Kinase HotSpot
applied_conditions: compound 0.5 µM; ATP 10 µM

compound	residual activity [%]
CO[C@H]1CC2CC[C@@H](C)[C@@](O)(O2)C(=O)C(=O)N2CCCC[C@H]2C(=O)OC([C@H](C)C[C@@H]2CC[C@@H](O)[C@H](OC)C2)CC(=O)[C@H](C)/C=C(\C)[C@@H](O)[C@@H](OC)C(=O)[C@H](C)C[C@H](C)/C=C/C=C/C=C/1C (some centres undefined)	93.3
COc1ccc2c(c[n+](C)c3c4cc5c(cc4ccc23)OCO5)c1OC	99.6
N#C/C(=C(/N)Sc1ccc(N)cc1)c1ccccc1C(F)(F)F	97.3
O=c1cc(N2CCOCC2)oc2c1ccc1ccccc12	96.2
O=C(Nc1cccc(Nc2nccc(Nc3cccc(C(F)(F)F)c3)n2)c1)C1CC1	87.6
O=C1NC(=O)C(c2cn(CCCn3ccnc3)c3ccccc23)=C1Nc1ccccc1	95.1
CNc1cc2c(Nc3cccc(Br)c3)ncnc2cn1	1.99
COc1ccc(COc2ccc(Cc3cnc(N)nc3N)cc2OC)cc1	96.9
Cc1ccc(Nc2nccc(N(C)c3ccc4c(C)n(C)nc4c3)n2)cc1S(N)(=O)=O	91
Cc1[nH]c(/C=C2\C(=O)Nc3ccc(S(=O)(=O)N(C)c4cccc(Cl)c4)cc32)c(C)c1C(=O)N1CCN(C)CC1	97.1
COc1cc2ncnc(Nc3cccc(Cl)c3)c2cc1OC	0.718
c1ccc(-c2n[nH]cc2-c2ccnc3ccccc23)nc1	81.8
CC(C)N(CCC(=O)c1ccc2ccccc2c1)Cc1ccccc1	99.4
CCN(CC)C(=O)c1ccc(Nc2nc(OCC3CCCCC3)c3nc[nH]c3n2)cc1	88.5
